test system: MDA-MB-468; assay: Growth inhibition of human MDA-MB-468 cells assessed as cell viability measured after 4 days by WST8 assay; assay type: functional, cell-based; settings: MDA-MB-468, 96 h
So basically: is IC50 under 1000 nM? Then met. Not under? Then not met.

[[record]]
compound = "CC(C)c1cnn2c(NCc3ccc(NC(=O)CCCCCCCOc4cccc5c4C(=O)N(C4CCC(=O)NC4=O)C5=O)cc3)nc(OC3CCN(C)CC3)nc12 (stereo not drawn)"
label = "met"

[[record]]
compound = "CC(C)c1cnn2c(NCc3ccc(NC(=O)CCCCCCOc4cccc5c4CN(C4CCC(=O)NC4=O)C5=O)cc3)nc(OC3CCN(C)CC3)nc12 (stereo not drawn)"
label = "met"

[[record]]
compound = "CC(C)c1cnn2c(NCc3ccc(CCCCCCNC(=O)COc4cccc5c4C(=O)N(C4CCC(=O)NC4=O)C5=O)cc3)cc(NCCCCCCN)nc12 (stereo not drawn)"
label = "not met"

[[record]]
compound = "CC(C)c1cnn2c(NCc3ccc(NC(=O)CCCCCCNc4cccc5c4C(=O)N(C4CCC(=O)NC4=O)C5=O)cc3)nc(OC3CCN(C)CC3)nc12 (stereo not drawn)"
label = "met"

[[record]]
compound = "CC(C)c1cnn2c(NCc3ccc(NC(=O)COCCOCCOCCOc4cccc5c4C(=O)N(C4CCC(=O)NC4=O)C5=O)cc3)nc(OC3CCN(C)CC3)nc12 (stereo not drawn)"
label = "not met"

[[record]]
compound = "CC(C)c1cnn2c(NCc3ccc(CCCCCCCOc4cccc5c4C(=O)N(C4CCC(=O)NC4=O)C5=O)cc3N(C)C)nc(OC3CCN(C)CC3)nc12 (stereo not drawn)"
label = "not met"

[[record]]
compound = "CC(C)c1cnn2c(NCc3ccc(NC(=O)CCCCCOc4cccc5c4C(=O)N(C4CCC(=O)NC4=O)C5=O)cc3)nc(OC3CCN(C)CC3)nc12 (stereo not drawn)"
label = "met"

[[record]]
compound = "CC(C)c1cnn2c(NCc3ccccc3-n3ccnc3)nc(OC3CCN(CCOCCOCCOCCNC(=O)COc4cccc5c4C(=O)N(C4CCC(=O)NC4=O)C5=O)CC3)nc12 (stereo not drawn)"
label = "not met"

[[record]]
compound = "CC(C)c1cnn2c(NCc3ccc(CCCCCCNC(=O)COc4cccc5c4C(=O)N(C4CCC(=O)NC4=O)C5=O)cc3N(C)C)nc(OC3CCN(C)CC3)nc12 (stereo not drawn)"
label = "not met"

[[record]]
compound = "CC(C)c1cnn2c(NCc3cccc(CCCCCCNC(=O)COc4cccc5c4C(=O)N(C4CCC(=O)NC4=O)C5=O)c3)cc(NCCCCCCN)nc12 (stereo not drawn)"
label = "not met"

[[record]]
compound = "CC(C)c1cnn2c(NCc3ccc(NC(=O)CCCCCCNC(=O)COc4cccc5c4C(=O)N(C4CCC(=O)NC4=O)C5=O)cc3)nc(OC3CCN(C)CC3)nc12 (stereo not drawn)"
label = "not met"

[[record]]
compound = "CC(C)c1cnn2c(NCc3ccccc3N(C)C)nc(OC3CCN(C)CC3)nc12"
label = "not met"

[[record]]
compound = "CC(C)c1cnn2c(NCc3ccc(NC(=O)CCCCCCCOc4cccc5c4CN(C4CCC(=O)NC4=O)C5=O)cc3)nc(OC3CCN(C)CC3)nc12 (stereo not drawn)"
label = "met"


Origin of the recorded values: ChEMBL document CHEMBL4828763
